TESTED TARGET: Dopamine receptor (Bos taurus) (UniProt Q95136+P20288)
TEST: Concentration necessary to achieve half maximal inhibition of [3H]spiperone binding dopamine receptor at 1 uM
Assay type: protein assay
Decide using Change alone. Strictly below -20%: Fulfilled. Equal to or above -20%: Not fulfilled.

[
  {
    "COMPOUND": "COc1ccc(C)c2c1OC[C@@H]1[C@@H]2CCCN1C",
    "ASSIGNED CATEGORY": "Not fulfilled"
  },
  {
    "COMPOUND": "CCCN1CCC[C@@H]2c3c(OC)cc(C)cc3OC[C@H]21",
    "ASSIGNED CATEGORY": "Fulfilled"
  },
  {
    "COMPOUND": "CCCN1CCC[C@@H]2c3ccccc3OC[C@H]21",
    "ASSIGNED CATEGORY": "Not fulfilled"
  },
  {
    "COMPOUND": "CN1CCC[C@@H]2c3cccc(O)c3OC[C@H]21",
    "ASSIGNED CATEGORY": "Fulfilled"
  },
  {
    "COMPOUND": "COc1cc(C)cc2c1[C@H]1CCCN(C)[C@@H]1CO2",
    "ASSIGNED CATEGORY": "Fulfilled"
  }
]

* * *

TESTED TARGET: Dopamine receptor (Bos taurus) (UniProt Q95136+P20288)
TEST: Concentration necessary to achieve half maximal inhibition of [3H](+)-[…]-6,7-dihydroxy-1,2,3,4-tetrahydronaphthalene binding to dopamine receptor at 1 uM
Assay type: protein assay
Note to self: class = bucket of Change, per lower = under -20%, middle = from -20% up to -10%, upper = -10% and over

[
  {
    "COMPOUND": "CCCN1CCC[C@@H]2c3c(OC)cccc3OC[C@H]21",
    "ASSIGNED CATEGORY": "upper"
  },
  {
    "COMPOUND": "CCCN1CCC[C@@H]2c3c(O)cccc3OC[C@H]21",
    "ASSIGNED CATEGORY": "middle"
  },
  {
    "COMPOUND": "COc1cc(C)cc2c1[C@H]1CCCN(C)[C@@H]1CO2",
    "ASSIGNED CATEGORY": "middle"
  },
  {
    "COMPOUND": "CCCN1CCC=C2c3c(OC)cccc3OCC21 (stereo not given)",
    "ASSIGNED CATEGORY": "middle"
  },
  {
    "COMPOUND": "CCCN1CCC[C@@H]2c3c(OC)cc(C)cc3OC[C@H]21",
    "ASSIGNED CATEGORY": "middle"
  },
  {
    "COMPOUND": "CCCN1CCC[C@@H]2c3ccccc3OC[C@H]21",
    "ASSIGNED CATEGORY": "lower"
  },
  {
    "COMPOUND": "COc1cccc2c1OC[C@@H]1[C@@H]2CCCN1C",
    "ASSIGNED CATEGORY": "lower"
  },
  {
    "COMPOUND": "CCCN1CCC=C2c3ccccc3OCC21 (stereo not given)",
    "ASSIGNED CATEGORY": "middle"
  },
  {
    "COMPOUND": "COc1ccc(C)c2c1OC[C@@H]1[C@@H]2CCCN1C",
    "ASSIGNED CATEGORY": "upper"
  }
]

* * *

TESTED TARGET: Serotonin 2 (5-HT2) receptor (Rattus norvegicus) (UniProt P30994+P08909+P14842)
Sequence (P08909 whole entry, looked up): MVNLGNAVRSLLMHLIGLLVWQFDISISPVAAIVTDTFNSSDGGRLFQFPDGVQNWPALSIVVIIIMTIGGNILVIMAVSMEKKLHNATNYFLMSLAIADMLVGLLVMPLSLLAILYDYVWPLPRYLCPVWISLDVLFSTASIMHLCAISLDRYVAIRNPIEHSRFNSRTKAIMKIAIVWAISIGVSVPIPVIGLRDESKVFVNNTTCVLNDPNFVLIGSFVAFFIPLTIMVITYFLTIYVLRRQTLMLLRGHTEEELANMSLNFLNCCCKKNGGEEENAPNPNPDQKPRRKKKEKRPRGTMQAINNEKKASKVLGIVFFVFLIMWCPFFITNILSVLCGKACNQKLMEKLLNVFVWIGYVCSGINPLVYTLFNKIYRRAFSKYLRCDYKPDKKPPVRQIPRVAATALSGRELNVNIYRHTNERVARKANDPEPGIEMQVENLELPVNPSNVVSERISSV
Sequence (P14842 whole entry, looked up): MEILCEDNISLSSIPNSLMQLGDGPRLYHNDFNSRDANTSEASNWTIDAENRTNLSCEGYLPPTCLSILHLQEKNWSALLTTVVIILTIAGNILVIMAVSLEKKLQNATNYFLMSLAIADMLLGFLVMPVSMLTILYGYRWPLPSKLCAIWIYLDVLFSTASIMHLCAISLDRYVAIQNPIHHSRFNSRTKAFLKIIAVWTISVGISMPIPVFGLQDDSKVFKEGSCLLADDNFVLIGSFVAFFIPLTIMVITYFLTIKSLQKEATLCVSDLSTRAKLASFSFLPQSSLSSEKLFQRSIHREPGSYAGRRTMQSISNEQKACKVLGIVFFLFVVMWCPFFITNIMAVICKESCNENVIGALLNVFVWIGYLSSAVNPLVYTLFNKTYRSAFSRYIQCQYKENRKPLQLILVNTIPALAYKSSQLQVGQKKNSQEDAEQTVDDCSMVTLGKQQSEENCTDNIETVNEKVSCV
Sequence (P30994 whole entry, looked up): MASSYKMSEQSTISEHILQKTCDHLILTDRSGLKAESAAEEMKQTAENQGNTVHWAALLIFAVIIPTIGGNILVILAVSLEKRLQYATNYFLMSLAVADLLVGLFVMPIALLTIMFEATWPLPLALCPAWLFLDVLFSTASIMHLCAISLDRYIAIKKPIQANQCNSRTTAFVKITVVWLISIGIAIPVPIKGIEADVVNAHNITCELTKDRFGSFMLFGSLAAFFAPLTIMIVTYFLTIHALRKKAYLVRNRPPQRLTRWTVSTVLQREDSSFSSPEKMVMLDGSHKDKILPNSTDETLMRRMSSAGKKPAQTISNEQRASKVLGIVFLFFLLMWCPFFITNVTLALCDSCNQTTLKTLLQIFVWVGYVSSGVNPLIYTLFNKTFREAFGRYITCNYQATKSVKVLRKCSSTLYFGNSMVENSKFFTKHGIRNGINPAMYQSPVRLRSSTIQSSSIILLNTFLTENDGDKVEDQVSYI
TEST: Concentration necessary to achieve half maximal inhibition of [3H]ketanserin binding to 5-hydroxytryptamine 2 receptor at 1 uM
Type: protein assay
Change reference
MEASUREMENT KIND: Change (%)

[
  {
    "COMPOUND": "CCCN1CCC=C2c3cccc(O)c3OCC21 (stereo not drawn)",
    "MEASUREMENT KIND": "Change",
    "OBSERVED": -14
  },
  {
    "COMPOUND": "CCCN1CCC[C@@H]2c3cc(O)ccc3OC[C@H]21",
    "MEASUREMENT KIND": "Change",
    "OBSERVED": -30
  },
  {
    "COMPOUND": "COc1ccc(C)c2c1OC[C@@H]1[C@@H]2CCCN1C",
    "MEASUREMENT KIND": "Change",
    "OBSERVED": -44
  },
  {
    "COMPOUND": "CN1CCC=C2c3cc(O)ccc3OCC21 (stereo not drawn)",
    "MEASUREMENT KIND": "Change",
    "OBSERVED": -32
  },
  {
    "COMPOUND": "CCCN1CCC=C2c3ccccc3OCC21 (stereo not drawn)",
    "MEASUREMENT KIND": "Change",
    "OBSERVED": -22
  },
  {
    "COMPOUND": "CCCN1CCC=C2c3cc(O)ccc3OCC21 (stereo not drawn)",
    "MEASUREMENT KIND": "Change",
    "OBSERVED": -14
  },
  {
    "COMPOUND": "CN1CCC[C@@H]2c3cc(O)ccc3OC[C@H]21",
    "MEASUREMENT KIND": "Change",
    "OBSERVED": -27
  },
  {
    "COMPOUND": "CCCN1CCC[C@@H]2c3ccc(O)cc3OC[C@H]21",
    "MEASUREMENT KIND": "Change",
    "OBSERVED": -14
  }
]

* * *

TESTED TARGET: Dopamine receptor (Bos taurus, UniProt Q95136+P20288)
TEST: Concentration necessary to achieve half maximal inhibition of [3H]spiperone binding dopamine receptor at 1 uM
Format: protein assay
The reader will find reported IC50 values listed item by item below.

[
  {
    "COMPOUND": "CN1CCC[C@@H]2c3cc(O)ccc3OC[C@H]21",
    "IC50, µM": 4.08
  },
  {
    "COMPOUND": "CCCN1CCC[C@@H]2c3ccc(O)cc3OC[C@H]21",
    "IC50, µM": 4.83
  },
  {
    "COMPOUND": "Cc1ccc(O)c2c1[C@H]1CCCN(C)[C@@H]1CO2",
    "IC50, µM": 0.17
  },
  {
    "COMPOUND": "CCCN1CCC[C@@H]2c3cc(O)ccc3OC[C@H]21",
    "IC50, µM": 1.26
  },
  {
    "COMPOUND": "CCCN1CCC=C2c3cc(O)ccc3OCC21 (configuration not stated)",
    "IC50, µM": 4.19
  },
  {
    "COMPOUND": "CCCN1CCC[C@@H]2c3cccc(O)c3OC[C@H]21",
    "IC50, µM": 0.26
  },
  {
    "COMPOUND": "CCCCN1CCC[C@@H]2c3cccc(O)c3OC[C@H]21",
    "IC50, µM": 0.26
  }
]

* * *

TESTED TARGET: Dopamine receptor (Bos taurus) (UniProt Q95136+P20288)
TEST: Concentration necessary to achieve half maximal inhibition of [3H]spiperone binding dopamine receptor at 1 uM
Format: protein assay
Reported values of Change for individual entries

[
  {
    "COMPOUND": "CCCN1CCC[C@@H]2c3c(OC)cccc3OC[C@H]21",
    "Change / %": -53
  },
  {
    "COMPOUND": "CCCN1CCC=C2c3ccccc3OCC21 (stereo unspecified)",
    "Change / %": -13
  },
  {
    "COMPOUND": "CCCN1CCC=C2c3c(OC)cccc3OCC21 (stereo unspecified)",
    "Change / %": -36
  },
  {
    "COMPOUND": "COc1cccc2c1OC[C@@H]1[C@@H]2CCCN1C",
    "Change / %": -22
  },
  {
    "COMPOUND": "CCCN1CCC[C@@H]2c3c(O)cccc3OC[C@H]21",
    "Change / %": -23
  },
  {
    "COMPOUND": "CCCN1CCC=C2c3cccc(O)c3OCC21 (stereo unspecified)",
    "Change / %": -17
  }
]

* * *

TESTED TARGET: Alpha-2A adrenergic receptor (Bos taurus)
Sequence (whole entry): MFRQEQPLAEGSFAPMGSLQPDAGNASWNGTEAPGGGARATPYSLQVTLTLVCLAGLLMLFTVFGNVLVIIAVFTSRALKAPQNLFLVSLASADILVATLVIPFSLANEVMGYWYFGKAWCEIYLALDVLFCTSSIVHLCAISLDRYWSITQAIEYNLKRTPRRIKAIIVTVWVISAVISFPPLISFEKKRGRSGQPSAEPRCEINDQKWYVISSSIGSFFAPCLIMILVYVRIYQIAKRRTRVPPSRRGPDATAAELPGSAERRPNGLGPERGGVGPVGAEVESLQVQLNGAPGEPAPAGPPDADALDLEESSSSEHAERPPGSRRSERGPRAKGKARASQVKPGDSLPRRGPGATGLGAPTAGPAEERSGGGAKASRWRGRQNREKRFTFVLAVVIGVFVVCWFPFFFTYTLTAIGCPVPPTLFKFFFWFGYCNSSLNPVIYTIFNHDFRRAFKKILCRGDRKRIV
TEST: Concentration necessary to achieve half maximal inhibition of [3H]clonidine binding to alpha-2 adrenergic receptorat 1 uM
Each entry below lists one item and its recorded Change value.
MEASUREMENT KIND: Change (%)

[
  {
    "COMPOUND": "COc1ccc(C)c2c1OC[C@@H]1[C@@H]2CCCN1C",
    "TESTED TARGET": "Alpha-2A adrenergic receptor (Bos taurus)",
    "MEASUREMENT KIND": "Change",
    "OBSERVED": -12
  },
  {
    "COMPOUND": "COc1cccc2c1OC[C@@H]1[C@@H]2CCCN1C",
    "TESTED TARGET": "Alpha-2A adrenergic receptor (Bos taurus)",
    "MEASUREMENT KIND": "Change",
    "OBSERVED": -24
  },
  {
    "COMPOUND": "CN1CCC[C@@H]2c3cccc(O)c3OC[C@H]21",
    "TESTED TARGET": "Alpha-2A adrenergic receptor (Bos taurus)",
    "MEASUREMENT KIND": "Change",
    "OBSERVED": -41
  },
  {
    "COMPOUND": "CCCN1CCC=C2c3cccc(O)c3OCC21 (stereo not given)",
    "TESTED TARGET": "Alpha-2A adrenergic receptor (Bos taurus)",
    "MEASUREMENT KIND": "Change",
    "OBSERVED": -34
  },
  {
    "COMPOUND": "CN1CCC[C@@H]2c3cc(O)ccc3OC[C@H]21",
    "TESTED TARGET": "Alpha-2A adrenergic receptor (Bos taurus)",
    "MEASUREMENT KIND": "Change",
    "OBSERVED": -64
  }
]
